ASSAY INFO: chemical genetic growth profiling, strain panel (AID 1159580);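 further: tested at 20 µM; growth read once vehicle control cultures reached saturation at 30 °C; 1 = growth at the plate median or of vehicle wells; lower values mean less growth of the strain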
RUN CONDITIONS: S. cerevisiae deletion strains, growth OD, locus YPR163C, strain tif3
Out of some 5,500 compounds screened, about 2,000 (36%) were called active. Another 18% or so got no clear call; they are omitted. No stated cut-off is given here; in the data, active means normalized growth mostly below about 0.91 (no sharp cut-off); inconclusive means no clear call, values can overlap the other calls; inactive means mostly above about 0.92. Some of the results follow.
Permitted responses: YES = active, NO = inactive

C=C[C@@H](C1=CC(=O)C(OC)=C(OC)C1=O)c1ccccc1 : YES

Challenge: // param item: C1CCN2CC3CC(CN4CCCCC34)C2C1 (stereo unspecified) ; yields the recorded call
Response given: YES

Challenge: // param item: C=CC(C)(O)CC/C=C(\C)CCC=C(C)C (stereo unspecified) ; yields the recorded call
Response given: NO

Challenge: // param item: Oc1c(Br)cc(Br)c2cccnc12 ; yields the recorded call
Response given: YES

Challenge: // param item: CN[C@H](CC(=O)O)C(=O)O ; yields the recorded call
Response given: NO

Challenge: // param item: Cc1ccc2cc3c(ccc4ccccc43)c3c2c1CC3 ; yields the recorded call
Response given: NO

Challenge: // param item: C=CC(C1=CC(=O)C(OC)=CC1=O)c1ccc(OC)cc1 (stereo unspecified) ; yields the recorded call
Response given: YES

Challenge: // param item: Nc1ccc(S(=O)(=O)Nc2ccccn2)cc1 ; yields the recorded call
Response given: NO

Challenge: // param item: NC[C@H](O)c1ccc(O)c(O)c1 ; yields the recorded call
Response given: NO

Challenge: // param item: CC(C)(C)NCC(O)c1ccccc1Cl (stereo unspecified) ; yields the recorded call
Response given: NO

Challenge: // param item: CC(C)NCC(O)c1ccc2ccccc2c1 (stereo unspecified) ; yields the recorded call
Response given: NO

Challenge: // param item: CCN(CC)CCNC(=O)c1cc(S(C)(=O)=O)ccc1OC ; yields the recorded call
Response given: NO

Challenge: // param item: O=C(O)CF ; yields the recorded call
Response given: NO

Challenge: // param item: NCCCC[C@H](N[C@@H](CCc1ccccc1)C(=O)O)C(=O)N1CCC[C@H]1C(=O)O ; yields the recorded call
Response given: NO

====

Each entry below carries its recorded normalized growth.
ASSAY INFO: chemical genetic growth profiling, strain panel (AID 1159580);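 further: tested at 20 µM; growth read once vehicle control cultures reached saturation at 30 °C; 1 = growth at the plate median or of vehicle wells; lower values mean less growth of the strain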
RUN CONDITIONS: S. cerevisiae deletion strains, growth OD, locus YAL030W, strain snc1, hits give low values
Hit rate of the full screen: of about 5,500 compounds, about 2,000 (36%) were called active. About 18% were inconclusive and are not listed. The list shows a part of the results.
Write no unit; give the number alone.

Challenge: Name the reported normalized growth value associated with the molecule COc1cccc(/C=C/C(=O)O)c1C(C)C
Response given: 0.978

Challenge: Name the reported normalized growth value associated with the molecule C=CC(C1=CC(=O)C(OC)=CC1=O)c1ccc(O)cc1 (stereo not drawn)
Response given: 1.01

Challenge: Name the reported normalized growth value associated with the molecule COc1c2c(cc3c1OCO3)CCN(C)C2
Response given: 1.01

Challenge: Name the reported normalized growth value associated with the molecule C[n+]1cccc(C(=O)[O-])c1
Response given: 0.982

Challenge: Name the reported normalized growth value associated with the molecule O=[N+]([O-])c1cc(O)c(O)c([N+](=O)[O-])c1
Response given: 1.02

Challenge: Name the reported normalized growth value associated with the molecule C=CC(C1=CC(=O)C=CC1=O)c1ccccc1 (stereo not drawn)
Response given: 1

Challenge: Name the reported normalized growth value associated with the molecule CC(=O)NCCCCCC(=O)O
Response given: 0.99
